Data credit: patent US20240132593A1

Measured percent reduction in ELISA signal, listed per entry.
# targetUnderTest: Antibody No. 245.1
# methodDescription: peptide blocking ELISA on plate-bound VISTA, peptide 20 ug/mL
propertyName: percent reduction in ELISA signal

binder: GHDVTFYKTWYRSSR (synthetic overlapping peptide from human VISTA) [Spiked Peptide 7 (GHDVTFYKTWYRSSR)]
dataValue: 26%

binder: CSERRPIRNLTFQDL (synthetic overlapping peptide from human VISTA) [Spiked Peptide 11 (CSERRPIRNLTFQDL)]
dataValue: 6%

binder: AMELQVQTGKDAPSN (synthetic overlapping peptide from human VISTA) [Spiked Peptide 27 (AMELQVQTGKDAPSN)]
dataValue: 0%

binder: DAPSNCVVYPSSSQE (synthetic overlapping peptide from human VISTA) [Spiked Peptide 29 (DAPSNCVVYPSSSQE)]
dataValue: 0%

binder: VCPEGQNVTLTCRLL (synthetic overlapping peptide from human VISTA) [Spiked Peptide 3 (VCPEGQNVTLTCRLL)]
dataValue: 3%

binder: HHHSEHRVHGAMELQ (synthetic overlapping peptide from human VISTA) [Spiked Peptide 25 (HHHSEHRVHGAMELQ)]
dataValue: 52%

binder: FYKTWYRSSRGEVQT (synthetic overlapping peptide from human VISTA) [Spiked Peptide 8 (FYKTWYRSSRGEVQT)]
dataValue: 1%

binder: GLESASDHHGNFSIT (synthetic overlapping peptide from human VISTA) [Spiked Peptide 18 (GLESASDHHGNFSIT)]
dataValue: 3%
